The entries below are paired with their reported pIC50.
Tested on: NF-κB
Assay: NF-κB assay: THP1-NF-κB-LUC cells, LPS-stimulated secreted luciferase
Assay type: cell-based
Settings: THP1-NF-κB-LUC cells; compounds 2 hours before LPS (10 ng/mL) for 18 hours; secreted luciferase; read-out: IC50 (NF-κB assay)
pIC50: −log10 of the molar value.

Sample answers from the record:
[[record]]
compound = "CC1Oc2cc(S(=O)(=O)Nc3ccc(OC(F)(F)F)cc3)c(Br)cc2N(C)C1=O (centres unmarked) [BC19784]"
experimental_result = "5.00 to 6.00"

[[record]]
compound = "CCc1cccc(NS(=O)(=O)c2cc3c(cc2Br)NC(=O)CO3)c1 [BC19167]"
experimental_result = "6.00 to 7.00"

[[record]]
compound = "CCS(=O)(=O)c1cc2c(c(S(=O)(=O)Nc3ccc(OC)cc3)c1)OCC(=O)N2 [BC19438]"
experimental_result = "> 7.00"


Reported pIC50, compound COc1ccc(S(=O)(=O)c2cnccc2O)cc1 [BC19457] : ____ < 5.00

Quick check: pIC50 of O=c1c(S(=O)(=O)c2ccc(Cl)cc2)c(O)[nH]c2ncccc12 [BC19259] ? 5.00 to 6.00

The values you see were collected from patent US12606528B2.
